Data provenance: patent US8557840B2

System: Amaranthus retroflexus
experimental details: Herbicidal action, post-emergence, seed trays in climatic chamber (Example B1)
Format: in vivo
settings: 1000 g/ha, evaluated after 9 days, 10=total damage to plant, 0=no damage to plant
Protocol: Seeds of a variety of test species were sown in sterilised standard soil in seed trays each having 96 cells. […] The plants were grown in the climatic chamber after application at (24/19° C., day/night; 13 hours light; 50-60% humidity) and watered twice daily. After 9 days until the test was evaluated (10=total damage to plant, 0=no damage to plant)
assay metric: AMARE damage to plant
Give bare numbers.

compound structure | endpoint value
CC(C)C(=O)Oc1c(-c2c(F)ccc(F)c2Cl)c(=O)n(C)c2cccnc12 | 5
CC(C)C(=O)Oc1c(-c2c(F)ccc(F)c2Cl)c(=O)n(C)c2ncccc12 | 6
CCc1cc(C)cc(CC)c1-c1c(O)c2cccnc2n(C)c1=O | 0
Cn1c(=O)c(-c2c(F)ccc(F)c2Cl)c(O)c2cccnc21 | 7
CCc1cc(C)cc(CC)c1-c1c(OC(=O)C(C)(C)C)c2cccnc2n(C)c1=O | 0

Working through the 4 compounds below one at a time, give AMARE damage to plant for each.
1. CCc1cc(C)cc(CC)c1-c1c(OC(=O)C(C)C)c2cccnc2n(C)c1=O
2. Cn1c(=O)c(-c2c(F)ccc(F)c2Cl)c(O)c2ncccc21
3. O=c1[nH]c2cccnc2c(O)c1-c1ccc(Cl)cc1Cl
4. Cn1c(=O)c(-c2c(F)ccc(F)c2Cl)c(OC(=O)C(C)(C)C)c2cccnc21

[A]
1: 0; 2: 6; 3: 0; 4: 3

Form: compound = O=c1[nH]c2cccnc2c(O)c1-c1cccnc1 ; AMARE damage to plant = 0
